Target: T1, human IL-2Rβ (human, UniProt P14784 27-240, limits assumed)
T1 construct: recombinant protein, coated or immobilised; also called hu IL-2R; IL-2R beta
T1 sequence: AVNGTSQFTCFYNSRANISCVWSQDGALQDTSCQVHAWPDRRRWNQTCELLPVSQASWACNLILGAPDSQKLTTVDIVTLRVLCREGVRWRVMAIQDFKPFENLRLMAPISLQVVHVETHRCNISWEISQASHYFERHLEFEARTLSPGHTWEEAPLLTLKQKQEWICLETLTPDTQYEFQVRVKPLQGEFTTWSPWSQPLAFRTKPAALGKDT
Experiment: SPR, P.E. off-rate
attribute measured: koff (s⁻¹)
Give bare numbers, in s⁻¹.

- binder: "FJ1427_P035MP02E08 (VHH, soluble VHH in periplasmic extract; also called clone nr) VHH: EVQLVESGGGLVQAGGSLRLSCVVSGDVFVRYTMAWFRQAPGKEREFVAVVTDSGRTTEYVDSVKGRFTVSRDNAKNTVYLQMNNLKPEDTAVYYCAANTDYFQIRSVDNNAWGQGTQVTVSS"
  endpoint unit: "s⁻¹"
  koff: 0.000846

Switching to the query record.
input: Need koff, item FJ1427_P035MP06F03 (VHH, soluble VHH in periplasmic extract; also called 23-MP06F03; clone nr; 502) VHH: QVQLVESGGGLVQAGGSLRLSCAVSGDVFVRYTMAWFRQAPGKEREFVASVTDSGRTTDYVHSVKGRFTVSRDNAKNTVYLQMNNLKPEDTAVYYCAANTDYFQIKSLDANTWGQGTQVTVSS
output: 0.00105
